Values compiled from paper PMC7071059.

Listed below: inhibition at 10 µM values for each entry.
# Tested on: HCT-116
# ASSAY REMARKS: NCI 60 one dose (10 μM) anticancer assay
# Assay type: cell-based
# ASSAY CONTEXT: Homo sapiens, 10 µM one dose, Colon Cancer, read-out: Growth Inhibition % HCT-116
REPORTED PROPERTY: inhibition at 10 µM (%)

{"MOLECULE": "Cc1ccc(-c2nc3ccccc3n2CC(=O)N/N=C/c2cccc(OCc3ccccc3)c2)o1 [Compound 17b]", "REPORTED PROPERTY": "inhibition at 10 µM", "LIMIT QUALIFIER": "=", "RECORDED VALUE": 32}
{"MOLECULE": "COc1cc(/C=N/NC(=O)Cn2c(-c3ccc(C)o3)nc3ccccc32)ccc1OCc1ccccc1 [Compound 17f]", "REPORTED PROPERTY": "inhibition at 10 µM", "LIMIT QUALIFIER": "=", "RECORDED VALUE": 28}
{"MOLECULE": "CC(C)c1nc2ccccc2n1CC(=O)N/N=C/c1cccc(OCc2ccccc2)c1 [Compound 17a]", "REPORTED PROPERTY": "inhibition at 10 µM", "LIMIT QUALIFIER": "=", "RECORDED VALUE": 66}
{"MOLECULE": "COc1cc(/C=N/NC(=O)Cn2c(C(C)C)nc3ccccc32)ccc1OCc1ccccc1 [Compound 17e]", "REPORTED PROPERTY": "inhibition at 10 µM", "LIMIT QUALIFIER": "<", "RECORDED VALUE": 10}
{"MOLECULE": "C/C(=N\\NC(=O)Cn1c(C(C)C)nc2ccccc21)c1ccccc1 [Compound 14a]", "REPORTED PROPERTY": "inhibition at 10 µM", "LIMIT QUALIFIER": "<", "RECORDED VALUE": 10}
{"MOLECULE": "Cc1ccc(-c2nc3ccccc3n2CC(=O)N/N=C/c2ccc(OCc3ccccc3)cc2)o1 [Compound 17d]", "REPORTED PROPERTY": "inhibition at 10 µM", "LIMIT QUALIFIER": "<", "RECORDED VALUE": 10}
{"MOLECULE": "CC(C)c1nc2ccccc2n1CC(=O)N/N=C/c1ccc(OCc2ccccc2)cc1 [Compound 17c]", "REPORTED PROPERTY": "inhibition at 10 µM", "LIMIT QUALIFIER": "=", "RECORDED VALUE": 18}
